# tgt: μ opioid receptor (MOR) (Homo sapiens, UniProt P35372)
# Construct: expressed in transfected cells
# Sequence (P35372 whole entry): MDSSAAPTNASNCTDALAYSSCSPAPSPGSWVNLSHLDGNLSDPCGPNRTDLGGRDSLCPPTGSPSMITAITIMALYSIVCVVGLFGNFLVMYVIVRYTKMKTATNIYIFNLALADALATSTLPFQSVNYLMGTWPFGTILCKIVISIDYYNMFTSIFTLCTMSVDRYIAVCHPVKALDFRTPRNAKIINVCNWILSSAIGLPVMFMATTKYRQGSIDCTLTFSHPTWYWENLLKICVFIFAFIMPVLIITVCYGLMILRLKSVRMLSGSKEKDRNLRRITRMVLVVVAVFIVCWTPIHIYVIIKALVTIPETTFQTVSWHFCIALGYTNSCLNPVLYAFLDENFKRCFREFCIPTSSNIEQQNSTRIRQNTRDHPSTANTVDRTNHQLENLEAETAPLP
# assay.remarks: cell-based
# Format: cell-based
# measurement.conditions: EC50
Assignment: determine reported EC50 for the given compounds.
Express your answer in nM, writing the number without its unit.

Q. Entry COC(=O)[C@@H]1C=C(OC(=O)c2cncnc2)C(=O)[C@H]2[C@@]1(C)CC[C@H]1C(=O)O[C@H](c3ccoc3)C[C@]21C : reported EC50 = ?
A. 6

Q. Another: COC(=O)[C@@H]1C=C(OC(=O)c2cccc(O)c2)C(=O)[C@H]2[C@@]1(C)CC[C@H]1C(=O)O[C@H](c3ccoc3)C[C@]21C
A. 1.3

Q. Lookup COC(=O)[C@@H]1C=C(OC(=O)/C=C/c2ccccc2)C(=O)[C@H]2[C@@]1(C)CC[C@H]1C(=O)O[C@H](c3ccoc3)C[C@]21C
A. 30

Q. Record: COC(=O)[C@@H]1C=C(OC(=O)c2ccc(O)cc2)C(=O)[C@H]2[C@@]1(C)CC[C@H]1C(=O)O[C@H](c3ccoc3)C[C@]21C
A. 0.83

Q. Next up: COC(=O)[C@@H]1C=C(OC(=O)c2cscn2)C(=O)[C@H]2[C@@]1(C)CC[C@H]1C(=O)O[C@H](c3ccoc3)C[C@]21C
A. 8

---

# tgt: μ opioid receptor (MOR) (Homo sapiens, UniProt P35372)
# Construct: expressed in transfected cells
# assay.remarks: cell-based
# Assay type: cell-based
# measurement.conditions: Series 2 EC50
For each of the compounds below, state its pEC50.
Keep in mind that pEC50 stands for -log10 of concentration in molar terms.

Q. Fill blank: measured pEC50 of the compound COC(=O)[C@@H]1C=C(OC(=O)c2cccc([N+](=O)[O-])c2)C(=O)[C@H]2[C@@]1(C)CC[C@H]1C(=O)O[C@H](c3ccoc3)C[C@]21C is ____.
A. 6.49

Q. Now this one: COC(=O)[C@@H]1C=C(OC(=O)c2ccccc2Cl)C(=O)[C@H]2[C@@]1(C)CC[C@H]1C(=O)O[C@H](c3ccoc3)C[C@]21C
A. 6.54

Q. Same thing, different compound: COC(=O)[C@@H]1C=C(OC(=O)c2cccs2)C(=O)[C@H]2[C@@]1(C)CC[C@H]1C(=O)O[C@H](c3ccoc3)C[C@]21C
A. 8.85

Q. What about this compound? COC(=O)[C@@H]1C=C(OC(=O)c2ccccc2OC)C(=O)[C@H]2[C@@]1(C)CC[C@H]1C(=O)O[C@H](c3ccoc3)C[C@]21C
A. 5.70

Q. Then this compound: COC(=O)[C@@H]1C=C(OC(=O)c2ccccc2C)C(=O)[C@H]2[C@@]1(C)CC[C@H]1C(=O)O[C@H](c3ccoc3)C[C@]21C
A. 6.62

Q. Further, for COC(=O)[C@@H]1C=C(OC(=O)c2cccnc2)C(=O)[C@H]2[C@@]1(C)CC[C@H]1C(=O)O[C@H](c3ccoc3)C[C@]21C ?
A. 8.48

---

# tgt: κ opioid receptor (KOR) (Homo sapiens, UniProt P41145)
# Construct: expressed in transfected cells
# Sequence (P41145 whole entry): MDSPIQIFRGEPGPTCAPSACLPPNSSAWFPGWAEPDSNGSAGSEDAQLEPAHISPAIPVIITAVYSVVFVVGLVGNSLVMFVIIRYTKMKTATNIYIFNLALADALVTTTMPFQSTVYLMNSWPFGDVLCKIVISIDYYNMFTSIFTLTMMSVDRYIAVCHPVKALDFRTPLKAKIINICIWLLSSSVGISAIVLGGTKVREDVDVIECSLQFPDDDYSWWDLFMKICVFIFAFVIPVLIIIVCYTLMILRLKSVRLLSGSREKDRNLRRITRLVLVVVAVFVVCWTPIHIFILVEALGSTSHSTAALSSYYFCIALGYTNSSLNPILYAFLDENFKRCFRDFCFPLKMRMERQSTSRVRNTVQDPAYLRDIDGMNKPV
# assay.remarks: cell-based
# Type: cell-based
# measurement.conditions: read-out: EC50 ± SEM κ
observed.property: pEC50
In simple prose, pEC50 is minus the logarithm base ten of a concentration in moles per litre.

Q. Look up pEC50: COC(=O)[C@@H]1C[C@H](OC(=O)c2ccccc2)C(=O)[C@H]2[C@@]1(C)CC[C@H]1C(=O)O[C@H](c3ccoc3)C[C@]21C [Compound 2, herkinorin, reference compound]
A. 6.77
